target: Recombinant human ATX (Homo sapiens, UniProt Q13822)
Construct: made in house; host or cells: human embryonic kidney (HEK) cells
method summary: Assessing ATX inhibition: released choline, Amplex Red fluorescence
Type: biochemical
experimental setup: ATX 10 nM, LPC 18:1 10 μM, pre-incubated with ATX at 37° C. for 20 minutes; Table 1, exemplified compounds; read-out: IC50
pIC50: −log10 of the molar value.
measured metric: pIC50

Would you please look over these solved cases?
{"compound": "Cc1cc(COC(=O)N2CCC(NC(=O)CCCc3c[nH]nn3)CC2)cc(C(F)(F)F)c1", "pIC50": 8.30}
{"compound": "O=C(NCCC1CN(C(=O)OCc2cc(Cl)cc(Cl)c2)CCO1)c1c[nH]c(=O)o1 (centres unmarked)", "pIC50": 6.28}
{"compound": "CN(CCCN1CCN(C(=O)OCc2cc(Cl)cc(Cl)c2)CC1)C(=O)c1c[nH]c(=O)o1", "pIC50": 6.81}
{"compound": "O=C(CCCc1c[nH]nn1)NC1CC2CCC(C1)N2C(=O)OCc1cc(Cl)cc(Cl)c1 (centres unmarked)", "pIC50": 6.26}
{"compound": "CN(CCC1CCN(C(=O)OCc2cc(Cl)cc(Cl)c2)CC1)C(=O)Cc1c[nH]nn1", "pIC50": 7.21}

a: O=C(CCCc1c[nH]nn1)NC1CCN(C(=O)CCc2ccc(Cl)cc2Cl)CC1
b: CCOc1c(NCCC2CN(C(=O)OCc3cc(Cl)cc(Cl)c3)CCO2)c(=O)c1=O (centres unmarked)
c: N#Cc1cc(Cl)cc(COC(=O)N2CCC(NC(=O)CCCCc3c[nH]nn3)CC2)c1
(Q) Kindly order the items shown according to pIC50, from the highest value down. Labels, ranked as asked.
(A) c, b, a
(c: 8.10, b: 7.29, a: 6.95)

----------
target: Recombinant human ATX (Homo sapiens, UniProt Q13822)
Construct: made in house; host or cells: human embryonic kidney (HEK) cells
method summary: Assessing ATX inhibition: released choline, Amplex Red fluorescence
Assay type: biochemical
experimental setup: ATX 10 nM, LPC 18:1 10 μM, pre-incubated with ATX at 37° C. for 20 minutes; Table 1, exemplified compounds; read-out: IC50
pIC50: −log10 of the molar value.
measured metric: pIC50

Example cases with answers are listed next.
{"compound": "Cc1cc(C)cc(COC(=O)N2CCC(NC(=O)CCCc3c[nH]nn3)CC2)c1", "target": "Recombinant human ATX (Homo sapiens, UniProt Q13822)", "pIC50": 8.22}
{"compound": "CN(CCC1CCN(C(=O)OCc2cc(Cl)cc(Cl)c2)CC1)C(=O)c1cc(O)no1", "target": "Recombinant human ATX (Homo sapiens, UniProt Q13822)", "pIC50": 6.19}
{"compound": "O=C(CCCCCc1c[nH]nn1)NC1CCN(C(=O)OCc2cc(Cl)cc(Cl)c2)CC1", "target": "Recombinant human ATX (Homo sapiens, UniProt Q13822)", "pIC50": 8.40}
{"compound": "O=C(O)CCCCCCC(=O)NC1CCN(C(=O)OCc2cc(Cl)cc(Cl)c2)CC1", "target": "Recombinant human ATX (Homo sapiens, UniProt Q13822)", "pIC50": 6.87}
{"compound": "O=C(CCCc1c[nH]nn1)NC1CCCN(C(=O)OCc2cc(Cl)cc(Cl)c2)CC1 (centres unmarked)", "target": "Recombinant human ATX (Homo sapiens, UniProt Q13822)", "pIC50": 6.14}
{"compound": "N#Cc1cc(Cl)cc(COC(=O)N2CCC(CCCCCc3c[nH]nn3)CC2)c1", "target": "Recombinant human ATX (Homo sapiens, UniProt Q13822)", "pIC50": 7.16}
{"compound": "O=C(CCCc1c[nH]nn1)NC1CCN(C(=O)COc2cc(Cl)cc(Cl)c2)CC1", "target": "Recombinant human ATX (Homo sapiens, UniProt Q13822)", "pIC50": 6.81}
{"compound": "O=C(NC1CCCN(C(=O)CCCc2c[nH]nn2)CC1)OCc1cc(Cl)cc(Cl)c1 (centres unmarked)", "target": "Recombinant human ATX (Homo sapiens, UniProt Q13822)", "pIC50": 6.10}
{"compound": "CN(CCC1CCN(C(=O)OCc2cc(Cl)cc(Cl)c2)CC1)C(=O)c1nn[nH]n1", "target": "Recombinant human ATX (Homo sapiens, UniProt Q13822)", "pIC50": 6.27}
{"compound": "O=C(CCc1cnn[nH]1)NCC1CCN(C(=O)OCc2cc(Cl)cc(Cl)c2)CC1", "target": "Recombinant human ATX (Homo sapiens, UniProt Q13822)", "pIC50": 7.77}

A: O=C(CCCc1c[nH]nn1)NC1CCN(C(=O)OCc2cc(Br)cc(C(F)(F)F)c2)CC1
B: N#Cc1cc(COC(=O)N2CCC(NC(=O)CCCc3c[nH]nn3)CC2)cc(Cl)c1Cl
(Q) Please indicate which item has the smaller measured pIC50: A versus B Refer to your chosen entry by its label in the reply.
(A) B
(B: 8.15, A: 8.52)

1: O=C(NC1CCN(C(=O)CCCCc2c[nH]nn2)CC1)OCc1cc(Cl)cc(Cl)c1
2: CN(CCC1CCN(C(=O)OCc2cc(Cl)cc(Cl)c2)CC1)C(=O)c1cc(O)[nH]n1
3: Cc1cc(C#N)cc(COC(=O)N2CCC(NC(=O)CCCc3c[nH]nn3)CC2)c1
(Q) Please list these compounds in decreasing order of pIC50. Reply format: the labels, ordered as requested.
(A) 3, 1, 2

----------
target: Recombinant human ATX (Homo sapiens)
Construct: made in house; host or cells: human embryonic kidney (HEK) cells
method summary: Assessing ATX inhibition: released choline, Amplex Red fluorescence
Type: biochemical
experimental setup: ATX 10 nM, LPC 18:1 10 μM, pre-incubated with ATX at 37° C. for 20 minutes; Table 1, exemplified compounds; read-out: IC50
measured metric: IC50 (nM)

{"molecule": "O=C(CCCc1c[nH]nn1)NC1CCN(C(=O)OCCc2cc(Cl)cc(Cl)c2)CC1 [Example 59]", "reported result": 24}

P: CC1CC(CNC(=O)CCc2cc(O)no2)CCN1C(=O)OCc1cc(Cl)cc(Cl)c1 (centres unmarked) [Example 5]
Q: O=C(CCCc1c[nH]nn1)NC1CCN(C(=O)/C=C/c2ccc(Cl)cc2Cl)CC1 [Example 39]
R: O=C(CC1CCN(C(=O)OCc2cc(Cl)cc(Cl)c2)CC1)NCCc1c[nH]nn1 [Example 61]
S: O=C(CCc1cc(O)no1)NCC1CCN(C(=O)OCc2cc(Cl)cc(Cl)c2)CC1 [Example 33]
T: O=C(OCc1cc(Cl)cc(Cl)c1)N1CCC(CCNc2c(O)c(=O)c2=O)CC1 [Example 4]
(Q) With regard to IC50, arrange the entries in ascending order, please. Write the labels in rank order as requested.
(A) R, Q, S, P, T
(R: 15 nM, Q: 77 nM, S: 131 nM, P: 313 nM, T: 728 nM)

----------
target: Recombinant human ATX (Homo sapiens)
Construct: made in house; host or cells: human embryonic kidney (HEK) cells
method summary: Assessing ATX inhibition: released choline, Amplex Red fluorescence
Assay type: biochemical
experimental setup: ATX 10 nM, LPC 18:1 10 μM, pre-incubated with ATX at 37° C. for 20 minutes; Table 1, exemplified compounds; read-out: IC50
measured metric: IC50 (µM)

{"chemical smiles": "CN(CCC1CCN(C(=O)OCc2cc(Cl)cc(Cl)c2)CC1)C(=O)c1c[nH]nn1", "IC50 (µM)": 0.175}

I: N#Cc1cc(COC(=O)N2CCC(NC(=O)CCCc3c[nH]nn3)CC2)cc(OC(F)(F)F)c1
II: O=C(CCCc1c[nH]nn1)NC1CN(C(=O)OCc2cc(Cl)cc(Cl)c2)C1
(Q) Higher IC50: I or II ? Choose, then provide that item's label.
(A) II
(II: 0.012 µM, I: 0.005 µM)

P: Cc1oc(=O)[nH]c1C(=O)N(C)CCC1CCN(C(=O)OCc2cc(Cl)cc(Cl)c2)CC1
Q: N#Cc1cc(Cl)cc(COC(=O)N2CCC(NC(=O)CCc3c[nH]nn3)CC2)c1
R: O=C(CCCc1c[nH]nn1)NC1CCN(C(=O)OCc2ccc(C(F)(F)F)cc2)CC1
(Q) Hey, can you sort those compounds up there by IC50, smallest first? Kindly provide the labels arranged according to the requested ordering.
(A) Q, R, P

----------
target: Recombinant human ATX (Homo sapiens, UniProt Q13822)
Construct: made in house; host or cells: human embryonic kidney (HEK) cells
method summary: Assessing ATX inhibition: released choline, Amplex Red fluorescence
Format: biochemical
experimental setup: ATX 10 nM, LPC 18:1 10 μM, pre-incubated with ATX at 37° C. for 20 minutes; Table 1, exemplified compounds; read-out: IC50
pIC50: −log10 of the molar value.
measured metric: pIC50

Use the examples below as a reference point.
{"molecule": "O=C(NCCC1CCN(C(=O)OCc2cc(Cl)cc(Cl)c2)CC1)c1c[nH]c(=O)o1", "pIC50": 6.97}
{"molecule": "CN(CCC1CCN(C(=O)OCc2cc(Cl)cc(Cl)c2)CC1)C(=O)c1c[nH]c(=O)s1", "pIC50": 7.54}
{"molecule": "O=C(Cc1c[nH]nn1)NCCC1CCN(C(=O)OCc2cc(Cl)cc(Cl)c2)CC1", "pIC50": 7.55}

I: O=C(CCc1cc(O)no1)NC1CCN(C(=O)OCc2cc(Cl)cc(Cl)c2)CC1
II: O=C(CCCc1cnn[nH]1)NCC1CCN(C(=O)OCc2cc(Cl)cc(Cl)c2)CC1
III: O=C(/C=C/c1c[nH]cn1)NC1CCN(C(=O)OCc2cc(Cl)cc(Cl)c2)CC1
IV: O=C(CCC1CCN(C(=O)OCc2cc(Cl)cc(Cl)c2)CC1)NCc1c[nH]nn1
V: CN(CCC1CN(C(=O)OCc2cc(Cl)cc(Cl)c2)CCO1)C(=O)c1c[nH]c(=O)o1 (centres unmarked)
(Q) Form: Sort by [pIC50] Order [ ascending ] Lab note: final answer is the ordered label list.
(A) V, I, III, II, IV
(V: 6.08, I: 6.40, III: 6.96, II: 7.74, IV: 8.15)

The origin of these recorded values is patent US20140171404A1.
